Provenance of the data: ChEMBL document CHEMBL1201862

Overview of reported GI50 across a group of compounds:
System: EKVX
Experiment: NCI tumour cell line growth inhibition, 48 h
Activity calls are given as the source filed them. Rule as the data show it: active = GI50 up to about 1.1 µM and inactive = higher.

{"COMPOUND": "Cc1c2ccncc2c(C)c2c1[nH]c1ccc(Cl)cc12", "GI50": "4.84 µM (inactive)"}
{"COMPOUND": "CCOc1ccc(/N=N/C2C(=O)N(C(=O)CC(=O)Nc3ccccc3)N=C2C)cc1 (stereo not given)", "GI50": "17.4 µM (inactive)"}
{"COMPOUND": "N#CC(c1ccccc1)N(CCc1ccccc1)C(=O)Oc1ccccc1 (stereo not given)", "GI50": "> 100 µM (inactive)"}

Reported GI50 of O=C(O)c1ccc(C(=O)c2ccccc2C(=O)O)cc1C(=O)O : > 100 µM (inactive)

The compound identified as Nc1ccn([C@@H]2C[C@H](CO)[C@@H](O)[C@H]2O)c(=O)n1 registered its GI50 at > 57.7 µM (inactive)

// field: GI50; key: C=CCOc1ccc(C(=N/NC(=O)c2ccccc2)/N=N/c2ccc([N+](=O)[O-])cc2)cc1OC ; value = > 100 µM (inactive)

The compound listed as O=C1CC2CCN(C(=O)c3ccccc3)CC2CCN1 (stereo not given) shows GI50 equal to > 100 µM (inactive)
